# ASSAY TARGET: mu opioid receptor (MOR) (UniProt P35372)
# Sequence (P35372 whole entry): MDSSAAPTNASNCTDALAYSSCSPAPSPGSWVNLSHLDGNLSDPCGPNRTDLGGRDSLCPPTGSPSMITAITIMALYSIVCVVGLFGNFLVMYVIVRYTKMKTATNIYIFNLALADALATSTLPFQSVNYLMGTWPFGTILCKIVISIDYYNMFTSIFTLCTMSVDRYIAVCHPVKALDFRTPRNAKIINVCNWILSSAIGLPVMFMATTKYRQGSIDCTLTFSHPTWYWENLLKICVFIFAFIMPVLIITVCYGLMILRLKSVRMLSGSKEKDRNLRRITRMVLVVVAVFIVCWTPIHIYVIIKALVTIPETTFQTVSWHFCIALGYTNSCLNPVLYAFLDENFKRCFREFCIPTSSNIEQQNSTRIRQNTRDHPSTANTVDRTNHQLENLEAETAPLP
# ASSAY NOTES: competition
Non-standard residues stand in square brackets, D forms with d. Primed or numbered codes have the meaning given here. No end group written: not given here. *: point of attachment. NH(3,5-(CF3)2-benzyl) = FC(F)(F)c1cc(CN*)cc(C(F)(F)F)c1; NMePhe(4-F) = CN[C@@H](Cc1ccc(F)cc1)C(=O)O; Phe(4-F) = N[C@@H](Cc1ccc(F)cc1)C(=O)O; NMeF = CN[C@@H](Cc1ccccc1)C(=O)O; 4Abz = Nc1ccc(C(=O)O)cc1; 4Amb′ = not defined here; GABA = NCCCC(=O)O; βAla = NCCC(=O)O
OUTCOME MEASURE: Ki (nM)
Please give a number only; it is taken to be in nM.

In: Check the records and state Ki for Y[dA]G[NMeF][4Amb′]PLW-{NH(3,5-(CF3)2-benzyl)} (reading uncertain) [AKG125]
Out: 5

In: Check the records and state Ki for Y[dA]G[NMeF][GABA]PLW-{NH(3,5-(CF3)2-benzyl)} [AKG123]
Out: 9

In: Check the records and state Ki for Y[dA]G[NMeF][4Abz]PLW-{NH(3,5-(CF3)2-benzyl)} [AKG176]
Out: 1

In: Check the records and state Ki for Y[dA]G[NMeF][βAla]PLW-{NH(3,5-(CF3)2-benzyl)} [AKG119]
Out: 8

In: Check the records and state Ki for Y[dA]G[NMePhe(4-F)]GPLW-{NH(3,5-(CF3)2-benzyl)} [AKG131]
Out: 185

In: Check the records and state Ki for Y[dA]G[Phe(4-F)]GPLW-{NH(3,5-(CF3)2-benzyl)} [AKG130]
Out: 9

All figures here come from patent US11141452.
